Target: T1, LGR7 (UniProt Q9HBX9 1-757, limits assumed)
T1 sequence (looked up): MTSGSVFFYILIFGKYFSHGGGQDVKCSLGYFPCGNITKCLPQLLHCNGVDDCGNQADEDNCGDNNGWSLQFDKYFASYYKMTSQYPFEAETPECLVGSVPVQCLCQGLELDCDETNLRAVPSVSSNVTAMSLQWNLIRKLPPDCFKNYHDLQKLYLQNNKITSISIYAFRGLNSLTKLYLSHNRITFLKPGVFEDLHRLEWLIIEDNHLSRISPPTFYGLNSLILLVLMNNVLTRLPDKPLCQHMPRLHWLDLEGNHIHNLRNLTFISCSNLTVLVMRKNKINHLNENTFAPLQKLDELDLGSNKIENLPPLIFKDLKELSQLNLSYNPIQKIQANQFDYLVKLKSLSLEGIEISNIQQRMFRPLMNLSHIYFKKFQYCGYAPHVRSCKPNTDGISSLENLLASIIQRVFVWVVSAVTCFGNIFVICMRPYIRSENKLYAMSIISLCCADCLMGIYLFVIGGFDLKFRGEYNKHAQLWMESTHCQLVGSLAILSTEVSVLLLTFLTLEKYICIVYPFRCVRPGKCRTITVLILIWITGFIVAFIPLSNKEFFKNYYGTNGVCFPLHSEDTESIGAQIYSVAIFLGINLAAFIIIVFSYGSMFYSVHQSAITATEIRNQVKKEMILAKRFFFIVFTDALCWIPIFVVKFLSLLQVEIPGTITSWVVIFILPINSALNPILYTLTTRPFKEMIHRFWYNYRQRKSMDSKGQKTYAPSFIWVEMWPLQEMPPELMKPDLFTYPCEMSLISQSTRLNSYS
Experiment: cell-based or functional assay
REPORTED_ENDPOINT: Activity (nM)
One number for each entry, in nM.

Past entries and their recorded results:
BINDER | MEASUREMENT_UNIT | READING
Tev-Relaxin-C chain (ligand) HHHHHHHHENLYFQGSGGDSWMEEVIKLCGRELVRAQIAICGMSTWSKRSLSQEDAPQTPRPVAEIVPSFINKDTETINMMSEFVANLPQELKLTLSEMQPALPQLQQHVPVLKDSSLLFEEFKKLIRNRQSEAADSSPSELKYLGLDTHSRKKRQLYSALANKCCHVGCTKRSLARFC | nM | 6
Tev-Relaxin (ligand) chain 1: HHHHHHHHENLYFQSGGDSWMEEVIKLCGRELVRAQIAICGMSTWS chain 2: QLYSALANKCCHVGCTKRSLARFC | nM | 2

Given Tev-Relaxin-single-chain (ligand) HHHHHHHHENLYFQGSGGDSWMEEVIKLCGRELVRAQIAICGMSTWSGGGRGGRQLYSALANKCCHVGCTKRSLARFC , state its recorded Activity.
14
